Ref: patent US20260085073A1

Target chain: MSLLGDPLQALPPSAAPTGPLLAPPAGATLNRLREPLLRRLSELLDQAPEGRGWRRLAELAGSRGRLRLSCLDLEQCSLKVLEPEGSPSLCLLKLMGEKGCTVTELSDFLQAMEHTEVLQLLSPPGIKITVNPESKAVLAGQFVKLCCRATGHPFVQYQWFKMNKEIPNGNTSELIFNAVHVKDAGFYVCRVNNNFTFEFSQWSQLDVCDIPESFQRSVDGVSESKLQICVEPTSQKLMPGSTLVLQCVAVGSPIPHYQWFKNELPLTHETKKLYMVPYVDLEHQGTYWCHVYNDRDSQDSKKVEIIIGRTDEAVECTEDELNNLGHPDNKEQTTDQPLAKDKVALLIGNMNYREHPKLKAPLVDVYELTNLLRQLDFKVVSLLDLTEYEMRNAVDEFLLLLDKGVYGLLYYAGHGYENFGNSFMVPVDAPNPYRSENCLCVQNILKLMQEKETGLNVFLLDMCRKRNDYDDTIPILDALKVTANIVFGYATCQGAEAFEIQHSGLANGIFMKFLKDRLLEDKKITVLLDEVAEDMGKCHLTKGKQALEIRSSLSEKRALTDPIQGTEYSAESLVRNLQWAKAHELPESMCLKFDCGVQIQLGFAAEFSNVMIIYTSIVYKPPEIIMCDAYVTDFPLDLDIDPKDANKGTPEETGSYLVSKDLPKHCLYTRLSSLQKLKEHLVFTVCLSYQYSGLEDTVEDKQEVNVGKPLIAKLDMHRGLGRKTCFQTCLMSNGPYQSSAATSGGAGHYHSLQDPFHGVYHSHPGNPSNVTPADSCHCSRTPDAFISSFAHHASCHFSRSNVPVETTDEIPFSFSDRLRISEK
Assignment: determine reported IC50 for the given molecules.

COMPOUND STRUCTURE: Cn1nc(-c2c[nH]c3ncccc23)c(C(F)(F)F)c1C(=O)Nc1ccnc(C(F)(F)F)c1
IC50: < 500 nM

COMPOUND STRUCTURE: Cn1nc(-c2csc3cnccc23)c(C(F)(F)F)c1C(=O)Nc1ccnc(C(F)(F)F)c1
IC50: < 500 nM

COMPOUND STRUCTURE: Cn1nc(-c2c(F)ccc3nc(N)sc23)c(C(F)(F)F)c1C(=O)Nc1ccnc(C(F)(F)F)c1
IC50: 500 to 2500 nM

COMPOUND STRUCTURE: N#Cc1cc(NC(=O)c2c(C(F)(F)F)c(-c3ccccc3)nn2C2COC2)cnc1-n1nccn1
IC50: 2500 to 10000 nM

COMPOUND STRUCTURE: CN(C)CCn1nc(-c2cccc3ccoc23)c(C(F)(F)F)c1C(=O)Nc1cnc(-n2nccn2)c(C#N)c1
IC50: < 500 nM

Each molecule below has a reported value. Please supply its IC50.
1. Cn1nc(-c2cccc3ncccc23)c(C(F)(F)F)c1C(=O)Nc1ccc(C(=O)N2CC(O)C2)c(Cl)c1
2. CN(c1ccccc1)c1nn(C)c(C(=O)Nc2ccnc(C(F)(F)F)c2)c1C(F)(F)F

**Result**
["2500 to 10000 nM", "500 to 2500 nM"]

---

Task for the reader: assign each of the following molecules its reported pIC50.
# SYSTEM: MALT1 (Homo sapiens)
pIC50: −log10 of the molar value.

Give me pIC50 for each of these molecules, listed below.
1. O=C(Nc1cnc(-n2nccn2)c(Cl)c1)c1c(C(F)(F)F)c(-c2ccccc2)nn1C(F)F
2. Cn1nc(-c2cnn3ccncc23)c(C(F)(F)F)c1C(=O)Nc1ccnc(C(F)(F)F)c1

**Result**
> 6.30
< 5.00

---

# SYSTEM: MALT1 (Homo sapiens)
# Construct: Avi-tagged FL MALT-1 (Pharmaron, stored at −70° C.); Avi-tag
# TEST PROTOCOL: MALT1 inhibition assay (MALT-1 Fluorogenic Peptide Cleavage Assay, Ac-LRSR-AMC substrate)
# Format: biochemical
# MEASUREMENT PARAMETERS: Avi-tagged FL MALT-1, 30 min pre-incubation, 90 min reaction at room temperature, fluorescence intensity
pIC50: −log10 of the molar value.
EXPERIMENTAL ENDPOINT: pIC50

Solved entries (count: 6):
COMPOUND: COCCn1nc(-c2ccccc2)c(C(F)(F)F)c1C(=O)Nc1cnc(-n2nccn2)c(Cl)c1 [Compound I-172]
pIC50: 5.60 to 6.30
//
COMPOUND: Cn1nc(-c2cncc3sccc23)c(C(F)(F)F)c1C(=O)Nc1ccnc(C(F)(F)F)c1 [Compound I-42]
pIC50: > 6.30
//
COMPOUND: CCn1nc(-c2ccccc2)c(C(F)(F)F)c1C(=O)Nc1cnc(-n2nccn2)c(Cl)c1 [Compound I-170]
pIC50: > 6.30
//
COMPOUND: [2H]C([2H])([2H])n1nc(-c2ccccc2)c(C(F)(F)F)c1C(=O)Nc1cnc(-n2nccn2)c(Cl)c1 [Compound I-165]
pIC50: > 6.30
//
COMPOUND: COc1ncc(NC(=O)c2c(C(F)(F)F)c(-c3cccc4ncccc34)nn2C)cc1C#N [Compound I-141]
pIC50: 5.00 to 5.60
//
COMPOUND: Cn1nc(-c2cccc3ncccc23)c(C(F)(F)F)c1C(=O)Nc1cnc(-n2nccn2)c(C#N)c1 [Compound I-38]
pIC50: 5.60 to 6.30

Now consider the entry below.
**Query** Provide one value: measured pIC50 of Cc1csc2c(-c3nn(C)c(C(=O)Nc4ccnc(C(F)(F)F)c4)c3C(F)(F)F)cccc12 [Compound I-101]
**Result** 5.60 to 6.30

---

IC50 values recorded for MALT1 (Homo sapiens, UniProt Q9UDY8)

Reference set, count: 4
COMPOUND: Cn1nc([C@@H]2C[C@H]2c2ccccc2)c(C(F)(F)F)c1C(=O)Nc1ccnc(C(F)(F)F)c1 (racemic)
EXPERIMENTAL ENDPOINT: IC50
MEASUREMENT: > 10000 nM
--
COMPOUND: Cn1nc(-c2cnn3c2OCCC3)c(C(F)(F)F)c1C(=O)Nc1ccnc(C(F)(F)F)c1
EXPERIMENTAL ENDPOINT: IC50
MEASUREMENT: > 10000 nM
--
COMPOUND: Cn1nc(-c2ccnc3ccoc23)c(C(F)(F)F)c1C(=O)Nc1ccnc(C(F)(F)F)c1
EXPERIMENTAL ENDPOINT: IC50
MEASUREMENT: < 500 nM
--
COMPOUND: Cn1nc(-c2cccc3cccnc23)c(C(F)(F)F)c1C(=O)Nc1ccnc(C(F)(F)F)c1
EXPERIMENTAL ENDPOINT: IC50
MEASUREMENT: 500 to 2500 nM

Required: IC50, one value per compound below.
1. Cn1nc(-c2cccc3ccoc23)c(C(F)(F)F)c1C(=O)Nc1ccnc(C(F)(F)F)c1
2. Cn1nc(-c2cnc3n2CCOC3)c(C(F)(F)F)c1C(=O)Nc1ccnc(C(F)(F)F)c1
3. COc1cccc(OC)c1-c1nn(C)c(C(=O)Nc2ccnc(C(F)(F)F)c2)c1C(F)(F)F

**Result**
< 500 nM
> 10000 nM
500 to 2500 nM

---

MALT1 (Homo sapiens) measurements of IC50, listed per entry.

Below: 3 compounds and their reported IC50.
COMPOUND STRUCTURE: Cn1nc(-c2cccc3cnsc23)c(C(F)(F)F)c1C(=O)Nc1ccnc(C(F)(F)F)c1
MEASUREMENT: > 10 µM
--
COMPOUND STRUCTURE: Cn1nc(-c2c[nH]c3ncncc23)c(C(F)(F)F)c1C(=O)Nc1ccnc(C(F)(F)F)c1
MEASUREMENT: > 10 µM
--
COMPOUND STRUCTURE: Cn1nc(-c2nccc3ccoc23)c(C(F)(F)F)c1C(=O)Nc1ccnc(C(F)(F)F)c1
MEASUREMENT: < 0.5 µM

For each entry beneath this line, provide reported IC50.
1. Cn1nc(-c2cccc3c(=O)[nH]ccc23)c(C(F)(F)F)c1C(=O)Nc1ccnc(C(F)(F)F)c1
2. Cn1nc(-c2cccc3c(N)nccc23)c(C(F)(F)F)c1C(=O)Nc1ccnc(C(F)(F)F)c1

**Result**
< 0.5 µM
> 10 µM

Provide each entry's IC50 from the list below.
1. Cn1nc(-c2cccc3ncccc23)c(C(F)(F)F)c1C(=O)Nc1cnc(-n2nccn2)c(C(F)F)c1
2. Cn1nc(-c2cccc3nscc23)c(C(F)(F)F)c1C(=O)Nc1ccnc(C(F)(F)F)c1

**Result**
1: < 0.5 µM; 2: < 0.5 µM

Quick request: IC50 for each listed item, please.
1. Cc1cn2c(-c3nn(C)c(C(=O)Nc4ccnc(C(F)(F)F)c4)c3C(F)(F)F)cccc2n1
2. Cn1nc(-c2cccc3c2OC(F)(F)O3)c(C(F)(F)F)c1C(=O)Nc1cnc(-n2nccn2)c(Cl)c1
3. COCCn1nc(C(=O)Nc2cnc(-n3nccn3)c(Cl)c2)c(C(F)(F)F)c1-c1ccccc1
4. Cn1nc(-c2ccccc2OC2COC2)c(C(F)(F)F)c1C(=O)Nc1cnc(-n2nccn2)c(C#N)c1
5. O=C(Nc1ccnc(C(F)(F)F)c1)c1nn(C2CC2)c(-c2ccccc2)c1C(F)(F)F
6. Cn1nc(-c2cccc3ncc(F)cc23)c(C(F)(F)F)c1C(=O)Nc1ccnc(C(F)(F)F)c1
7. Cn1nc(-c2cccn3ncnc23)c(C(F)(F)F)c1C(=O)Nc1ccnc(C(F)(F)F)c1
8. Cn1nc(-c2cccc3ncsc23)c(C(F)(F)F)c1C(=O)Nc1ccnc(C(F)(F)F)c1

**Result**
1: 2.5 to 10 µM; 2: < 0.5 µM; 3: > 10 µM; 4: 0.5 to 2.5 µM; 5: 0.5 to 2.5 µM; 6: 0.5 to 2.5 µM; 7: 0.5 to 2.5 µM; 8: < 0.5 µM
